Give measured IC50 for each item. Keep answers brief.

stdin: Give recorded IC50 with GyrB ATPase activity (E. coli GyrA, E. coli GyrB) (Escherichia coli, UniProt P0AES6) for the following molecule: COCCNC(=O)c1nc(N2CCC(NC(=O)c3[nH]c(C)c(Cl)c3Cl)C3(C2)OCCCO3)sc1C(=O)O (stereo not drawn) [Example 17]
stdout: < 9.77 nM

stdin: Hello, I am looking for reported IC50 with GyrB ATPase activity (E. coli GyrA, E. coli GyrB) (Escherichia coli, UniProt P0AES6) for COCCn1ccnc1-c1nc(N2CCC(NC(=O)c3[nH]c(C)c(Cl)c3Cl)/C(=N/OC)C2)sc1C(=O)O (stereo not drawn) [Example 27] . Could you help?
stdout: < 63.5 nM

stdin: Given the entry CNC(=O)c1nc(N2CCC(NC(=O)c3[nH]c(C)c(Cl)c3Cl)C3(C2)OCCO3)sc1C(=O)O (stereo not drawn) [Example 13] , what IC50 was observed with GyrB ATPase activity (E. coli GyrA, E. coli GyrB) (Escherichia coli, UniProt P0AES6)?
stdout: < 69 nM
